System: SB.mhdgc-1
measurement.protocol: AC50 for growth inhibition (viability) (log10 M); higher = less potent
study.conditions: SB.mhdgc-1 (hereditary c.1380delA CDH1 gastric cancer)
reported.property: AC50 for growth inhibition (log10 M)
Number only, please.

Input: Query (compound): `Cc1c(NC(=O)OC[C@@H]2COCCN2)cn2ncnc(Nc3ccc4c(cnn4Cc4cccc(F)c4)c3)c12` ; field requested: AC50 for growth inhibition (log10 M)
Output: -6.53

Input: Same question for CCN(CC)CCCC(C)Nc1ccnc2cc(Cl)ccc12 (configuration not stated) please.
Output: -4.98

Input: Same question for `Cc1cc(Nc2cc(NC(=O)c3c(Cl)cccc3Cl)ccn2)nc(N)n1` please.
Output: -5.58

Input: Same question for `Nc1ccc(C(=O)Nc2cccc(-c3nc(N4CCOCC4)c4oc5ncccc5c4n3)c2)cn1` please.
Output: -5.38

Input: Same question for Cl.Cl.Cl.O[C@@H](COc1cccc2ncccc12)CN1CCN([C@@H]2c3ccccc3[C@@H]3[C@H](c4ccccc42)C3(F)F)CC1 [Zosuquidar trihydrochloride] please.
Output: -4.93

Input: Same question for `Cc1cnc(NC(=O)Nc2cc(Br)c(C)cc2OC[C@@H]2CNCCO2)cn1` please.
Output: -4.88

Input: Same question for `CC(C)(O)CC(=O)NCCn1ccc2ncnc(Nc3ccc(Oc4cccc(C(F)(F)F)c4)c(Cl)c3)c21` please.
Output: -5.43
